test system: U251 CNS; assay: NCI-60 one-dose screen, 48 h; conditions: 10 µM unless noted
About 83,000 compounds went through this panel and 20% of them were active in at least one assay; those are over-represented in the sample as a whole. The source made the active and inactive calls. The calls were made as follows: active = growth percent below 10; inactive = the rest.
Possible outcomes: active, inactive

CC[C@]12C=CCN3CC[C@@]4(c5cc(NC(=O)CCC(=O)OCc6cn(Cc7ccc(F)cc7)nn6)c(OC)cc5N(C)[C@H]4[C@@](O)(C(=O)OC)[C@@H]1OC(C)=O)[C@@H]32	inactive
CN1CCN(C(=O)c2ccc(NC(=O)Nc3ccc(-c4nc(N5CCOCC5)c5cccn5n4)cc3)cc2)CC1	active
COC(=O)CNC(=O)[C@H](Cc1ccccc1)NCc1ccncc1	inactive
CCCCC[C@@H]1Cc2cc(O)c(C(=O)O)c3c2[C@H](C[C@]2(OC[C@@H](CC(=O)[C@@](C)(CC)C(=O)OC)[C@@H]2C)O3)O1	inactive
COC(C(=O)[C@@H](O)[C@@H](C)O)[C@@H]1Cc2cc3cc(O[C@H]4C[C@@H](O[C@H]5C[C@@H](O)[C@H](O)C(C)O5)[C@H](O)C(C)O4)c(C)c(O)c3c(O)c2C(=O)[C@H]1O[C@H]1C[C@@H](O[C@H]2C[C@@H](O[C@H]3C[C@@H](O)[C@H](OC)C(C)O3)[C@@H](O)C(C)O2)[C@H](O)C(C)O1 (stereo partly drawn)	active
C=C(C)[C@@H]1CC[C@]2(C(=O)O)CC[C@]3(C)[C@H](CC[C@@H]4[C@@]5(C)C[C@@H](Cc6cn(CCO[C@@H]7O[C@H](COC(C)=O)[C@H](OC(C)=O)[C@H](OC(C)=O)[C@H]7OC(C)=O)nn6)[C@H](O)C(C)(C)[C@@H]5CC[C@]43C)[C@@H]12	inactive
S=C1CCSC(=S)N1CCCN1C(=S)CCSC1=S	inactive
CCS/C(Nc1ccccc1)=C(\C#N)C(=O)N/N=C/c1ccc(Cl)cc1Cl	inactive
COc1ccc(/C(C)=C(/c2ccc(OCCCN(C)C)cc2)c2ccc(OC(=O)Cc3ccccc3)cc2)cc1	inactive
CN(C)CCNC(=O)c1cccc(-c2cnc3ccc(-c4ccc5c(c4)OCO5)nn23)c1	inactive
C1=C(N2CCCC2)CCC1	inactive
CCCc1cc(NC)nc(S(=O)(=O)CC)n1	inactive
CN(C)CCCC1(c2ccc(F)cc2)OCc2cc(-c3cncc4ccccc34)ccc21 (stereo not drawn)	active
CCOC(=O)c1c2c(n3ccc(C)cc13)C(=O)c1ccccc1C2=O	inactive
CCCCOC(=O)OCc1cc(=O)c(O)co1	inactive
CCn1c(SCC(=O)c2ccc(Br)cc2)nnc1-c1ccncc1	inactive
O=C1c2ccc3c4ccc5c6c(ccc(c7ccc(c2c37)C(=O)N1CCC[P+](c1ccccc1)(c1ccccc1)c1ccccc1)c64)C(=O)N(CCC[P+](c1ccccc1)(c1ccccc1)c1ccccc1)C5=O	inactive
N#CCSc1nnc2n(Cc3ccccc3)c(=O)c3c4c(sc3n12)CCCC4	inactive
Cc1ccc(Sc2oc(-c3ccc(C)cc3)nc2[P+](c2ccccc2)(c2ccccc2)c2ccccc2)cc1	inactive
N=C(N)c1ccc(-c2ccc(-c3ccc(F)cc3)o2)o1	active
CCOC(=O)Cn1c(O)c(N=Nc2ccc(S(N)(=O)=O)cc2)c2cc(Br)ccc21	inactive
Cc1cc(=O)[nH]c2c(C#N)cnn12	inactive
COC(C(=O)[C@@H](O)[C@@H](C)O)[C@@H]1Cc2cc3cc(O[C@H]4C[C@@H](O[C@H]5C[C@@H](O)[C@H](O)C(C)O5)[C@H](O)C(C)O4)cc(O)c3c(O)c2C(=O)[C@H]1O[C@H]1C[C@@H](O[C@H]2C[C@@H](O[C@H]3C[C@@H](OC)[C@H](O)C(C)O3)[C@@H](O)C(C)O2)[C@H](O)C(C)O1 (stereo partly drawn)	inactive
Cc1ccc(/C=C2\CN(C(=O)OC(C)(C)C)C/C(=C\c3ccc(C)cc3)C2=O)cc1	inactive
COc1ccc2[nH]cc(-c3nc(-c4c[nH]c5ccncc45)cs3)c2c1	active
COc1ccc(C(=S)N2CCN(c3ccccc3Cl)CC2)cc1OC	inactive
Cc1ccc(-c2nc3nc(-c4ccccc4)nc(N4CCNCC4)c3o2)cc1	active
CCN1CC(=O)N(/N=C2\C(=O)Nc3ccccc32)C1=S	inactive
COc1ccc2c(O)c(/C=C3\N=Nc4ccccc43)oc2c1C[C@@H]1CCNC[C@H]1F	inactive
N#Cc1c(-c2cccs2)cc(-c2cccnc2)[nH]c1=O	inactive
O=C(O)[C@@H]1c2ccccc2-c2ccccc2[C@H]1C(=O)O	inactive
O=c1oc2ccccc2cc1C1=NN=C(SCc2ccccc2)SC1	inactive
Nc1ncnc2c1N=C(c1ccc3c(c1)OCO3)CC(c1ccc([N+](=O)[O-])cc1)N2 (stereo not drawn)	inactive
